These entries and their values trace back to paper PMC10237670.

# system tested: WT BLMcore (Homo sapiens, UniProt P54132 636-1298)
# Sequence (P54132 636-1298): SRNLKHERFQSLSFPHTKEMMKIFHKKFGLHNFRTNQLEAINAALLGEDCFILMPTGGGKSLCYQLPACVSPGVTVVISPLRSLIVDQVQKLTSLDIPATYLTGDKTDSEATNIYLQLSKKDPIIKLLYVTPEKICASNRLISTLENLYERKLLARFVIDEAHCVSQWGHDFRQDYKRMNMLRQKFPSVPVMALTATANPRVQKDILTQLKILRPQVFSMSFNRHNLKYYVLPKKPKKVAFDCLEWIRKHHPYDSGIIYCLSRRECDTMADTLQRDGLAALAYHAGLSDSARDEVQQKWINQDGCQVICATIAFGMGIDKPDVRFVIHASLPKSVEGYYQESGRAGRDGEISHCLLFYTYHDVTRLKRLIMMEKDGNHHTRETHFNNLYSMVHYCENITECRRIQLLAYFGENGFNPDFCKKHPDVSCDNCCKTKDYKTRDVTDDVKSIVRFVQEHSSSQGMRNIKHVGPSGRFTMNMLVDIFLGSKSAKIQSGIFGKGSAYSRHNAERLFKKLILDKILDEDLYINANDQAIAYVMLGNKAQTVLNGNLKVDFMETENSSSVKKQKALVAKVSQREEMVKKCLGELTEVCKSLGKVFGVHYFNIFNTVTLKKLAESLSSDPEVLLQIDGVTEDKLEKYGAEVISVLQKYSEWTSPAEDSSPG
# protocol: EMSA; 5 mM MgCl2; smear; estimated apparent KD; 50 mM Tris-HCl pH 7.5, 50 mM KCl, 5 mM MgCl2, 1 mM DTT, 0.1 mg/mL BSA, 40 nM DNA, 30 min room temperature; 5% gel in TBE + 100 mM KCl at 4 C
# cond: protein: recombinant; (HisTrap purified); single strand
readout kind: Kd

[Q] Sample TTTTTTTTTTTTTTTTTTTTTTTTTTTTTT (ssDNA) [FAM-dT30 (ssDNA)] — what was its Kd?
[A] ~125 nM
